- assay overview: Pharmacokinetic study in rats after oral administration of SYD extract and its single and combined TCM extracts (UPLC-MS/MS of plasma)
- condition: male, Sprague-Dawley, rat, plasma, po, 1.29 g/kg, MRT(0–∞), rat plasma, oral AS extract 1.29 g/kg, n = 6
measurement label: MRT inf (h)
Kindly provide the numeric value in h only, without the unit symbol.

Which MRT inf is listed for O=C(/C=C/c1ccc(O)c(O)c1)O[C@@H]1C[C@](O)(C(=O)O)C[C@@H](O)[C@H]1O [Chlorogenic acid, chlorogenic acid] ?
4.28

----------
- assay overview: in vivo
- condition: male, Sprague-Dawley, rat, po, 8.25 g/kg, MRT(0–∞)
measurement label: MRT inf

What MRT inf value was documented for this molecule, C=C[C@H]1[C@H](O[C@@H]2O[C@H](CO)[C@@H](O)[C@H](O)[C@H]2O)OC=C2C(=O)OCC[C@H]21 [Sweroside, sweroside] ?
3.53 h

Origin of the recorded values: paper PMC6150365
